# System: CASKI
# assay_explanation: Primary qHTS to identify gynecologic anti-cancer compounds using libraries of approved drugs and bioactive compounds (AID 1345084); note: nearly all actives have a fitted effect of over 55% in size
# settings: Gynecologic cancer cell panel viability, ATPlite luminescence, 48 h; series mostly up to 57.5 µM
Records with an inconclusive call do not appear. Active and inactive are the calls of the source. Calls come from the whole dose curve; as a rule, active = well fitted cell-killing curve with a large enough effect; inconclusive = small, poorly fitted or top-dose-only effect, or effect the other way; inactive = flat fitted curve, though single readings scatter.
// allowed return values: TRUE (active), FALSE (inactive)

# compound, assigned_class
rows = [
    ("Cc1cccc(S(=O)(=O)N2CCC[C@@H]2CCN2CCC(C)CC2)c1", "FALSE"),
    ("CCOc1cc(C(=O)N2CCC(N3CCN(C)CC3)CC2)ccc1Nc1ncc2c(n1)N(C1CCCC1)c1ccccc1C(=O)N2C", "FALSE"),
]

Task item: Hello, I am checking results. What call was entered for CCN(CC)CCN(Cc1ccc(-c2ccc(C(F)(F)F)cc2)cc1)C(=O)Cn1c(SCc2ccc(F)cc2)nc(=O)c2c1CCC2 ?
Reply: TRUE

Task item: In this assay, the call recorded for C[S+](CC[C@H](N)C(=O)[O-])C[C@H]1O[C@@H](n2cnc3c(N)ncnc32)[C@H](O)[C@@H]1O (some centres undefined) was what?
Reply: FALSE

Task item: Short answer needed: outcome of this test for O=C(CCc1ccccc1)N1CCC(O)(Cn2cnc3cc(Cl)ccc3c2=O)CC1 ?
Reply: FALSE

Task item: Recorded test call requested for O=C(O)CC(=O)OC[C@H]1O[C@@H](Oc2ccc3c(c2)OC[C@H]2c4cc5c(cc4O[C@@H]32)OCO5)[C@H](O)[C@@H](O)[C@@H]1O
Reply: FALSE

Task item: Status in this test for COC(=O)c1c(C)cc(OC(=O)c2c(C)cc(OC)cc2OC)cc1O[C@@H]1O[C@H](CO)[C@@H](O)[C@H](O)[C@H]1O ?
Reply: FALSE

Task item: How did this test come out for C=C1CCC2C(C)(COC(C)=O)CCCC2(C)C1CCC(C)CC(=O)O (centres undefined) ?
Reply: FALSE

Task item: Query: recorded result category for O=C(NCc1cccc(O)c1)c1cc2cc(F)ccc2[nH]1 in this test
Reply: FALSE

###

# System: PA-1
# assay_explanation: Primary qHTS to identify gynecologic anti-cancer compounds using libraries of approved drugs and bioactive compounds (AID 1345084); note: nearly all actives have a fitted effect of over 55% in size
# settings: Gynecologic cancer cell panel viability, ATPlite luminescence, 48 h; series mostly up to 57.5 µM
Results filed as inconclusive are left out. The source made the active and inactive calls. Calls come from the whole dose curve; as a rule, active = well fitted cell-killing curve with a large enough effect; inconclusive = small, poorly fitted or top-dose-only effect, or effect the other way; inactive = flat fitted curve, though single readings scatter.
Hello, when you answer, please use one of the following outcomes: active, inactive

Please review the following examples before continuing.
# compound, assigned_class
measured = [
    ("Cc1noc(-c2ccc(-c3ccc(CC(=O)O)cc3)cc2)c1NC(=O)O[C@H](C)c1ccccc1", "inactive"),
    ("CCOCc1nc2c(N)nc3ccccc3c2n1CC(C)(C)O", "inactive"),
    ("Nc1ccc(/C=C/C(=O)NCc2cc3cc(-c4ccc(C(=O)N5CCC(F)(F)CC5)cc4)cc(-c4ccc(F)cc4)c3o2)cn1", "active"),
    ("CC(C)(C)CCN1C[C@@H]2C(CNC(=O)c3cc(Cl)cc(Cl)c3)[C@@H]2C1 (some centres undefined)", "inactive"),
]

Task item: Hey, what did the test say about COc1nc2sc(C(=O)NC3CC3)c(N)c2c(C)c1Cl ?
Reply: inactive

Task item: Recorded test outcome, item C=CC/C=C\C/C=C\CCCCCCCc1cccc(O)c1C(=O)O
Reply: inactive

Task item: Field: outcome | Entry: C[C@@H]1O[C@@H](OC[C@H]2O[C@@H](OC(CCCCc3ccc(O)cc3)CCc3ccc(O)cc3)[C@H](O)[C@@H](O)[C@@H]2O)[C@H](O)[C@H](O)[C@H]1O (some centres undefined)
Reply: inactive

Task item: For this compound, state the assay outcome: Nc1nc(Nc2ccc(S(N)(=O)=O)cc2)n(C(=S)Nc2c(F)cccc2F)n1
Reply: inactive

Task item: Please let me know the test result on file for COc1ccc(-c2c(-c3cc(C(=O)O)ccn3)ncn2C)cc1 .
Reply: inactive
